Target: Kir3.1/Kir3.2 (Homo sapiens, UniProt P48051+P48549)
Sequence (P48549 whole entry): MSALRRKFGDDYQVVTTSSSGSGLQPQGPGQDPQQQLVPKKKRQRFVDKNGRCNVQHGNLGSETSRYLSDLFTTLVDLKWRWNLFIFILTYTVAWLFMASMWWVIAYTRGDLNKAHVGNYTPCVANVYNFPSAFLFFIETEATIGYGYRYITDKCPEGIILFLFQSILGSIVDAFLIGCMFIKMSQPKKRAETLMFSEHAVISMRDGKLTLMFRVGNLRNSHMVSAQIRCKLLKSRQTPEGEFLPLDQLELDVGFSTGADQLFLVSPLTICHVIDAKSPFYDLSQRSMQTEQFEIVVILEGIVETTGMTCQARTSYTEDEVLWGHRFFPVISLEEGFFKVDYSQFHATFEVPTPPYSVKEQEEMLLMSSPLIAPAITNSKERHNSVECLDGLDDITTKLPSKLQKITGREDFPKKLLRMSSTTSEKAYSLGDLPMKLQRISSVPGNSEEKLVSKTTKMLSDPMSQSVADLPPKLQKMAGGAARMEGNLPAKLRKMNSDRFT
Sequence (P48051 whole entry): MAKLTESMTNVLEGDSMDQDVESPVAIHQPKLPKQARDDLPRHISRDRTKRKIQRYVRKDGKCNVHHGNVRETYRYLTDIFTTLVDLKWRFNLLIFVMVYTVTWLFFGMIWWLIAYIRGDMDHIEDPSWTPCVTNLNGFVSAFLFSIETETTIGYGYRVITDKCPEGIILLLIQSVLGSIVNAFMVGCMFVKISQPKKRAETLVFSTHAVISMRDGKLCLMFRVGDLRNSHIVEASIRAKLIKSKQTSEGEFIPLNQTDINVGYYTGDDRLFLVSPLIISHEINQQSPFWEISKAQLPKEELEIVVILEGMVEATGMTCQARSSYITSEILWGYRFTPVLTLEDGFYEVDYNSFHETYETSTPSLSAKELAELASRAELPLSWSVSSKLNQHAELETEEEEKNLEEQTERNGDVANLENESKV
Assay: Activation of GIRK1/2 (unknown origin) transfected in HEK293 cells after 4 mins by thallium flux-based fluorescence assay
Format: cell-based
Record form. Attribute: EC50. Fill in for each entry.

Examples with answers:
Cc1ccc(NC(=O)Nc2cccc(F)c2)cc1S(=O)(=O)N(C)C; 1.1 µM
COc1ccc(OC)c(NC(=O)Nc2ccc(C)c(S(=O)(=O)N(C)C)c2)c1; > 10 µM
Cc1ccc(NC(=O)Nc2ccc(C)c(S(=O)(=O)N(C)C)c2)cc1Cl; 2.9 µM

Batch: EC50 for all items listed.
1. Cc1cccc(NC(=O)Cc2ccccc2Cl)c1
2. Cc1ccc(NC(=O)Nc2ccccc2Cl)cc1S(=O)(=O)N(C)C
3. CS(=O)(=O)c1cc(NC(=O)Cc2ccccc2Cl)ccc1F
4. O=C(Cc1ccccc1Cl)Nc1ccc(Cl)c(C(F)(F)F)c1
5. O=C(Cc1ccccc1Cl)Nc1cc(Cl)cc(C(F)(F)F)c1
6. O=C(Cc1ccccc1Cl)Nc1cccc(OC(F)F)c1

1: > 10 µM; 2: 2.7 µM; 3: > 10 µM; 4: > 10 µM; 5: > 10 µM; 6: > 10 µM

Parameters: items (list). Returns: EC50 for each item.
1. O=C(Cc1ccccc1Cl)Nc1ccc(Cl)cc1
2. O=C(Cc1ccccc1Cl)Nc1ccc(C(F)(F)F)cc1
3. Cc1ccc(NC(=O)Nc2ccccc2F)cc1S(=O)(=O)N(C)C

["> 10 µM", "> 10 µM", "3.9 µM"]
